tested on: IL-1β (LPS-stimulated PBMCs); experiment: IL-1β expression in LPS-stimulated PBMCs in the presence of MIF inhibitors (ELISA); assay type: cell-based; conditions: Homo sapiens, PBMC, LPS 10 ng/ml and LPS+MIF, ELISA of supernatant
pIC50: −log10 of the molar value.
observable: pIC50

Record excerpt, results attached:
{"structureAsSmiles": "N#Cc1c(O[C@H]2CO[C@H]3[C@@H]2OC[C@@H]3OC(=O)c2ccccc2)c2ccccc2n(Cc2ccc(F)cc2)c1=O", "pIC50": "< 5.00"}
{"structureAsSmiles": "N#Cc1c(O[C@H]2CO[C@H]3[C@@H]2OC[C@@H]3O)c2ccccc2n(Cc2ccccc2)c1=O", "pIC50": "< 7.00"}

Report pIC50 for each item below.
1. CCOC(=O)c1c(O[C@H]2CO[C@H]3[C@@H]2OC[C@@H]3O)c2ccccc2n(Cc2ccc(F)cc2)c1=O
2. N#Cc1c(O[C@H]2CO[C@H]3[C@@H]2OC[C@@H]3OC(=O)CCl)c2ccccc2n(Cc2ccc(F)cc2)c1=O
3. CCOC(=O)c1c(O[C@H]2CO[C@H]3[C@@H]2OC[C@@H]3OC(=O)CCl)c2ccccc2n(Cc2ccccc2)c1=O

OUT:
1. < 6.30
2. < 7.00
3. < 7.00

# return pIC50 for each item in the list
1. CCOC(=O)c1c(O[C@H]2CO[C@H]3[C@@H]2OC[C@@H]3OC(=O)CCl)c2ccccc2n(Cc2ccc(F)cc2)c1=O
2. CCOC(=O)c1c(O[C@H]2CO[C@@H]3C=CO[C@H]23)c2ccccc2n(CC)c1=O

OUT:
< 7.00
< 5.00

----------
tested on: TNF-α (LPS-stimulated PBMCs); assay: TNF-α expression in LPS-stimulated PBMCs in the presence of MIF inhibitors (ELISA); assay type: cell-based; details: Homo sapiens, PBMC, LPS 10 ng/ml and LPS+MIF, ELISA of supernatant
observable: IC50

As a guide, the following entries are already answered.
{"structureAsSmiles": "CCOC(=O)c1c(O[C@H]2CO[C@H]3[C@@H]2OC[C@@H]3O)c2ccccc2n(Cc2ccc(F)cc2)c1=O", "IC50": "> 500 nM"}
{"structureAsSmiles": "N#Cc1c(O[C@H]2CO[C@H]3[C@@H]2OC[C@@H]3OC(=O)CCl)c2ccccc2n(Cc2ccc(F)cc2)c1=O", "IC50": "> 100 nM"}
{"structureAsSmiles": "CCOC(=O)c1c(Nc2ccc(O[C@H]3CO[C@H]4[C@@H]3OC[C@@H]4O)c(Cl)c2)c2ccccc2n(Cc2ccccc2)c1=O", "IC50": "> 500 nM"}
{"structureAsSmiles": "CCOC(=O)c1c(O[C@H]2CO[C@H]3[C@@H]2OC[C@@H]3OC(=O)CCl)c2ccccc2n(CC)c1=O", "IC50": "> 500 nM"}

IN: Give the measured IC50 for "CCOC(=O)c1c(O[C@H]2CO[C@H]3[C@@H]2OC[C@@H]3OC(C)=O)c2ccccc2n(CC)c1=O"
OUT: > 10000 nM

----------
test system: TNF-α (LPS-stimulated PBMCs); test: TNF-α expression in LPS-stimulated PBMCs in the presence of MIF inhibitors (ELISA); assay type: cell-based; conditions: Homo sapiens, PBMC, LPS 10 ng/ml and LPS+MIF, ELISA of supernatant
pIC50: −log10 of the molar value.
observable: pIC50

Worked examples, 6 molecules total:
{"structureAsSmiles": "N#Cc1c(O[C@H]2CO[C@H]3[C@@H]2OC[C@@H]3O)c2ccccc2n(Cc2ccc(F)cc2)c1=O", "assayedSystem": "TNF-α (LPS-stimulated PBMCs)", "pIC50": "< 7.00"}
{"structureAsSmiles": "CCOC(=O)c1c(O[C@H]2CO[C@H]3[C@@H]2OC[C@@H]3OC(C)=O)c2ccccc2n(Cc2ccccc2)c1=O", "assayedSystem": "TNF-α (LPS-stimulated PBMCs)", "pIC50": "< 5.00"}
{"structureAsSmiles": "CCOC(=O)c1c(O[C@H]2CO[C@@H]3C=CO[C@H]23)c2ccccc2n(CC)c1=O", "assayedSystem": "TNF-α (LPS-stimulated PBMCs)", "pIC50": "< 5.00"}
{"structureAsSmiles": "N#Cc1c(O[C@H]2CO[C@H]3[C@@H]2OC[C@@H]3O)c2ccccc2n(Cc2ccccc2)c1=O", "assayedSystem": "TNF-α (LPS-stimulated PBMCs)", "pIC50": "< 7.00"}
{"structureAsSmiles": "CCOC(=O)c1c(O[C@H]2CO[C@H]3[C@@H]2OC[C@@H]3O)c2ccccc2n(Cc2ccccc2)c1=O", "assayedSystem": "TNF-α (LPS-stimulated PBMCs)", "pIC50": "< 6.30"}
{"structureAsSmiles": "N#Cc1c(O[C@H]2CO[C@H]3[C@@H]2OC[C@@H]3OC(=O)c2ccccc2)c2ccccc2n(Cc2ccc(F)cc2)c1=O", "assayedSystem": "TNF-α (LPS-stimulated PBMCs)", "pIC50": "< 5.00"}

Provide the reported pIC50 of each entry below, same order.
1. CCOC(=O)c1c(O[C@H]2CO[C@H]3[C@@H]2OC[C@@H]3OC(=O)CCl)c2ccccc2n(Cc2ccc(F)cc2)c1=O
2. CC(=O)O[C@H]1CO[C@H]2[C@@H]1OC[C@@H]2Oc1c(C#N)c(=O)n(Cc2ccc(F)cc2)c2ccccc12
3. N#Cc1c(O[C@H]2CO[C@H]3[C@@H]2OC[C@@H]3OC(=O)CCl)c2ccccc2n(Cc2ccccc2)c1=O

OUT:
["< 7.00", "< 7.00", "< 6.30"]

Please report pIC50 for every entry that follows.
1. CCOC(=O)c1c(O[C@H]2CO[C@@H]3C=CO[C@H]23)c2ccccc2n(Cc2ccccc2)c1=O
2. CC(=O)O[C@H]1CO[C@H]2[C@@H]1OC[C@@H]2Oc1c(C#N)c(=O)n(Cc2ccccc2)c2ccccc12
3. CCOC(=O)c1c(O[C@H]2CO[C@H]3[C@@H]2OC[C@@H]3OC(=O)CCl)c2ccccc2n(Cc2ccccc2)c1=O
4. N#Cc1c(Nc2ccc(O[C@H]3CO[C@H]4[C@@H]3OC[C@@H]4O)c(Cl)c2)c2ccccc2n(Cc2ccccc2)c1=O
5. CCOC(=O)c1c(O[C@H]2CO[C@H]3[C@@H]2OC[C@@H]3O)c2ccccc2n(CC)c1=O

OUT:
["< 5.00", "< 6.00", "< 7.00", "< 7.00", "< 6.00"]
